inhibition at 1 µM values by entry
# tested.system: M3 muscarinic receptors (Homo sapiens)
# Construct: expressed in transfected cells; host or cells: CHO cells
# Sequence (P20309 whole entry): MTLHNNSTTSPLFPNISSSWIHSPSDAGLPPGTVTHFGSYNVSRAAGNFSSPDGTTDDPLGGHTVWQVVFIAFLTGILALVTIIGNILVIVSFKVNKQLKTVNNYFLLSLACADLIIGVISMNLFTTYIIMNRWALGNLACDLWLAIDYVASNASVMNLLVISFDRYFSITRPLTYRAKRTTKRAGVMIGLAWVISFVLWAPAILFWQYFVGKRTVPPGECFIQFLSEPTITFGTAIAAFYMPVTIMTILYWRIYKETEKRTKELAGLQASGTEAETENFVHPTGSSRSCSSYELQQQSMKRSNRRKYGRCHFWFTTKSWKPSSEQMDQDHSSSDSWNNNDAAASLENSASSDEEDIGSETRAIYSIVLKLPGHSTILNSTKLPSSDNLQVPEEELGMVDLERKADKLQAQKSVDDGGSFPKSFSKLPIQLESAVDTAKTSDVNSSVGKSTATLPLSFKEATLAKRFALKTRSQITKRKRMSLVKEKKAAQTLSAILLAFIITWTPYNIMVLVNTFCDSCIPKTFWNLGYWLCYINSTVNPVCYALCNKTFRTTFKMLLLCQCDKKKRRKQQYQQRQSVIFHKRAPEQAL
# method.notes: Radioligand binding assay, muscarinic M3 receptors
# applied.conditions: test compound 1×10^−6 M
Your answer is read as %, so omit the unit and give the number.

Some solved entries appear below for comparison.
compound	inhibition at 1 µM [%]
O=S(=O)(NCC1CN(CCCc2noc3cc(F)ccc23)C1)c1cccc2ccccc12	17
O=S(=O)(NC1CN(CCOc2cccc3[nH]ccc23)C1)c1ccc(F)cc1	-13
Cc1ccc2sc(S(=O)(=O)NC3CCN(CCCc4noc5cc(F)ccc45)C3)cc2c1 (centres unmarked)	8

Suppose we examine the compound O=S(=O)(NC1CCN(CCCc2c[nH]c3ccc(Cl)cc23)C1)c1cccc(Cl)c1 (centres unmarked) ; what inhibition at 1 µM value has been reported?
3

Suppose we examine the compound `O=S(=O)(N[C@@H]1CCN(CCCc2noc3cc(F)ccc23)C1)c1ccc2ccccc2c1` ; what inhibition at 1 µM value has been reported?
9

Suppose we examine the compound CC1(C)Cc2cccc(OCCN3CCC(NS(=O)(=O)c4cccc(O)c4)C3)c2O1 (centres unmarked) ; what inhibition at 1 µM value has been reported?
8

Suppose we examine the compound `O=S(=O)(NCC1CN(CCCc2noc3cc(F)ccc23)C1)c1ccc2ccccc2c1` ; what inhibition at 1 µM value has been reported?
34

Suppose we examine the compound `O=S(=O)(N[C@H]1CCN(CCCc2noc3cc(F)ccc23)C1)c1csc2ccccc12` ; what inhibition at 1 µM value has been reported?
23

----------
# tested.system: dopaminergic receptors D2 (Homo sapiens)
# Sequence (P14416 whole entry): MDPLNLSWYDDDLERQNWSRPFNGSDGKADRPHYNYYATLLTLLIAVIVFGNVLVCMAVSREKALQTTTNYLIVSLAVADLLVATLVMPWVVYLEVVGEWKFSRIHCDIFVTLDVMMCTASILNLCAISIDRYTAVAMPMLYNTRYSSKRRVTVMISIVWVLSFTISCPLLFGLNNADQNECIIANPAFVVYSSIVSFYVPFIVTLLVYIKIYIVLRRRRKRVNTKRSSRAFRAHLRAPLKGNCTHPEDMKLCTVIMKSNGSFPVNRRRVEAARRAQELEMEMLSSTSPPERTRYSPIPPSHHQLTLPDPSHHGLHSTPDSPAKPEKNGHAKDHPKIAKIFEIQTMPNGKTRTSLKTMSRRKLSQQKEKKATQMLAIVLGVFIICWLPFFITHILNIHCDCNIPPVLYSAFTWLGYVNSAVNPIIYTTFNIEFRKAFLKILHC
# method.notes: Radioligand binding assay, dopaminergic D2 receptors
# applied.conditions: read-out: Inhibition constants Ki for D2 receptors, D2
pKi values by entry
# log scale: pKi equals minus log10 of the concentration in mol/L

molecule	pKi
O=S(=O)(N[C@H]1CCN(CCCc2noc3cc(F)ccc23)C1)c1ccc2ccccc2c1	8.42
Cc1c(S(=O)(=O)N[C@H]2CCN(CCCc3noc4cc(F)ccc34)C2)sc2ccc(F)cc12	9.05
Cc1ccc2sc(S(=O)(=O)N[C@@H]3CCN(CCCc4noc5cc(F)ccc45)C3)cc2c1	9.15

Provide value of pKi for this record tested with dopaminergic receptors D2 (Homo sapiens): `O=S(=O)(N[C@@H]1CCN(CCCc2noc3cc(F)ccc23)C1)c1cc2ccccc2o1`
8.55

Provide value of pKi for this record tested with dopaminergic receptors D2 (Homo sapiens): `O=S(=O)(N[C@H]1CCN(CCCc2noc3cc(F)ccc23)C1)c1cc2ccc(Cl)cc2s1`
8.36

Provide value of pKi for this record tested with dopaminergic receptors D2 (Homo sapiens): `Cc1c(S(=O)(=O)N[C@@H]2CCN(CCCc3noc4cc(F)ccc34)C2)sc2ccc(F)cc12`
8.92

Provide value of pKi for this record tested with dopaminergic receptors D2 (Homo sapiens): `O=S(=O)(N[C@H]1CCN(CCCc2noc3cc(F)ccc23)C1)c1cc2ccccc2s1`
8.24

Provide value of pKi for this record tested with dopaminergic receptors D2 (Homo sapiens): Cc1c(S(=O)(=O)NCC2CCN(CCCc3noc4cc(F)ccc34)C2)sc2ccc(Cl)cc12 (centres unmarked)
8.41

----------
# tested.system: α2C adrenergic receptors (Homo sapiens, UniProt P18825)
# Construct: expressed in transfected cells; host or cells: CHO cells
# Sequence (P18825 whole entry): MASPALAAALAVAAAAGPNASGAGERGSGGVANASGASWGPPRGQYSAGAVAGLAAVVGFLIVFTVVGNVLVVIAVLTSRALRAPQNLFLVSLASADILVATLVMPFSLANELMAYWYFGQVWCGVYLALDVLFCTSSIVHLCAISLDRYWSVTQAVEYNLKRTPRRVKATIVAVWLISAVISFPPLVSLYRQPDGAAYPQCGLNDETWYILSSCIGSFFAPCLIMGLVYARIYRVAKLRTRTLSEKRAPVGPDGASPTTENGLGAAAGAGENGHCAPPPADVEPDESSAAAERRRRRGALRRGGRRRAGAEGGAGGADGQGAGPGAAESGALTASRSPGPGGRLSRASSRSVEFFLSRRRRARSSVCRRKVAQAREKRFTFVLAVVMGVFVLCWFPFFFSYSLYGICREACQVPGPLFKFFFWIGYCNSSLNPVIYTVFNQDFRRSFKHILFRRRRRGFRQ
# method.notes: Radioligand binding assay, adrenergic α2C receptors
# applied.conditions: test compound 1×10^−6 M
inhibition at 1 µM values by entry
Your answer is read as %, so omit the unit and give the number.

Some solved entries appear below for comparison.
compound	number
O=S(=O)(NCC1CCN(CCCc2noc3cc(F)ccc23)C1)c1cccc2ccccc12 (stereo not shown)	89
O=S(=O)(N[C@@H]1CCN(CCCc2noc3cc(F)ccc23)C1)c1cc2ccc(Cl)cc2s1	80
O=S(=O)(NC1CN(CCOc2cccc3[nH]ccc23)C1)c1ccc(F)cc1	101

Suppose we examine the compound Cc1c(S(=O)(=O)NCC2CCN(CCCc3noc4cc(F)ccc34)C2)sc2ccc(Cl)cc12 (stereo not shown) ; what inhibition at 1 µM value has been reported?
94

Entry source: patent US20140135310A1
